Ref: patent US20180353501A1

Biological target: p38δ (Homo sapiens, UniProt O15264)
Construct: endogenous in cells; host or cells: MDA-MB-231 (intact cells for degradation; cleared cell lysate for CETSA)
Sequence (O15264 whole entry): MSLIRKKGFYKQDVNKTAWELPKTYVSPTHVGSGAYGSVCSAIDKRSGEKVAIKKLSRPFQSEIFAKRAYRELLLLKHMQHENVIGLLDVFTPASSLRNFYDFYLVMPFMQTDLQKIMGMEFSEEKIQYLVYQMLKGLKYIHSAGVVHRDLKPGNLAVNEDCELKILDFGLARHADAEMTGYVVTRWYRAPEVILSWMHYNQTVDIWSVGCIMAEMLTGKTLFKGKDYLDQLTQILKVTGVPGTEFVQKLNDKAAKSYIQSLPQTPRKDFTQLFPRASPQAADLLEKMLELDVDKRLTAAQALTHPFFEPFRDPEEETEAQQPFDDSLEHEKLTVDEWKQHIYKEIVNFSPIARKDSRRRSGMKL
Assay: Western blot survey of p38 isoform degradation in MDA-MB-231 cells (incl. proteasome rescue, CHX chase, washout)
Type: cell-based
Details: MDA-MB-231 cells, western blot
Reported DC50 values for the following molecules.

# count of solved cases: 3
{"SMILES REPR": "COc1cc2c(Oc3ccc(NC(=O)C4(C(=O)Nc5ccc(F)cc5)CC4)cc3F)ccnc2cc1OCCCOCCCOCCCOc1cc(-c2scnc2C)ccc1CNC(=O)[C@@H]1C[C@@H](O)CN1C(=O)[C@H](C(C)C)N1Cc2ccccc2C1=O", "DC50": "> 5 µM"}
{"SMILES REPR": "COc1cc2c(Oc3ccc(NC(=O)C4(C(=O)Nc5ccc(F)cc5)CC4)cc3F)ccnc2cc1OCCCCOCCCCOc1cc(-c2scnc2C)ccc1CNC(=O)[C@@H]1C[C@@H](O)CN1C(=O)[C@H](C(C)C)N1Cc2ccccc2C1=O", "DC50": "> 5 µM"}
{"SMILES REPR": "COc1cc2c(Oc3ccc(NC(=O)C4(C(=O)Nc5ccc(F)cc5)CC4)cc3F)ccnc2cc1OCCCOCCCOCCC(=O)N[C@H](C(=O)N1C[C@H](O)C[C@H]1C(=O)NCc1ccc(-c2scnc2C)cc1)C(C)(C)C", "DC50": "> 5 µM"}

Task item: Which value of DC50 has been reported for "COc1cc2c(Oc3ccc(NC(=O)C4(C(=O)Nc5ccc(F)cc5)CC4)cc3F)ccnc2cc1OCCCOCCOCCC(=O)N[C@H](C(=O)N1C[C@H](O)C[C@H]1C(=O)NCc1ccc(-c2scnc2C)cc1)C(C)(C)C" in the records?
Reply: 0.0917 µM
